Test system: milkweed bug (Oncopeltus faciatus [Dallas])
experiment_summary: Initial contact activity against milkweed bug (percent kill)
Type: in vivo
assay_context: 312 ppm, 72 hours exposure, read-out: Percent Kill MWB, initial activity
parameter: mortality at 312 ppm (%)
Lab book: enter the figure in %, no units written.

Summary for this compound, CC1(C)C(C=CSc2ccccc2)C1C(=O)OCc1cccc(Oc2ccccc2)c1 (mixture of isomers) [Example 1] : mortality at 312 ppm is 5

mortality at 312 ppm reading for CC1(C)C(C=CSc2ccccc2)C1C(=O)OC(C#N)c1cccc(Oc2ccccc2)c1 (mixture of isomers) [Example 2] : 90

Reported mortality at 312 ppm of CC1(C)C(C=C(Cl)Sc2ccc(F)cc2)C1C(=O)OC(C#N)c1cccc(Oc2ccccc2)c1 (mixture of isomers) [Example 8] : 100

Record CC1(C)C(C=C(Cl)Sc2ccccc2)C1C(=O)OC(C#N)c1cccc(Oc2ccccc2)c1 (mixture of isomers) [Example 3] , field mortality at 312 ppm: 100

New cases:
The compound listed as CC1(C)C(C=C(Cl)Sc2ccccc2)C1C(=O)OC(c1cccc(Oc2ccccc2)c1)C(F)(F)F (mixture of isomers) [Example 7] shows mortality at 312 ppm equal to 32

Measured mortality at 312 ppm of CC1(C)C(C=C(Cl)Sc2ccc(Cl)cc2)C1C(=O)OCc1cccc(Oc2ccccc2)c1 (mixture of isomers) [Example 9] : 70

Value of measured mortality at 312 ppm for the entry CC1(C)C(C=CSc2ccc(F)cc2)C1C(=O)OC(C#N)c1cccc(Oc2ccccc2)c1 (mixture of isomers) [Example 6] : 38

* * *

Test system: southern armyworm (Spodoptera eridania [Cram.])
experiment_summary: Initial contact activity against southern armyworm (percent kill)
Assay type: in vivo
assay_context: 78 ppm, 72 hours exposure, read-out: Percent Kill AW, initial activity
Entries and their mortality at 78 ppm values follow.

Sample answers from the record:
The compound listed as CC1(C)C(C=C(Cl)Sc2ccc(F)cc2)C1C(=O)OC(C#N)c1cccc(Oc2ccccc2)c1 (mixture of isomers) has a reported mortality at 78 ppm of 40%

Record CC1(C)C(C=CSc2ccccc2)C1C(=O)OC(C#N)c1cccc(Oc2ccccc2)c1 (mixture of isomers) , field mortality at 78 ppm: 0%

Lab note: CC1(C)C(C=C(Br)Sc2ccccc2)C1C(=O)OCc1cccc(Oc2ccccc2)c1 (mixture of isomers) gave mortality at 78 ppm of 0%

***
mortality at 78 ppm measured on CC1(C)C(C=C(Cl)Sc2ccccc2)C1C(=O)OC(C#N)c1cccc(Oc2ccccc2)c1 (mixture of isomers) = 75%

So, CC1(C)C(C=CSc2ccc(F)cc2)C1C(=O)OC(C#N)c1cccc(Oc2ccccc2)c1 (mixture of isomers) ? Its mortality at 78 ppm was 0%

* * *

Recorded measurements of mortality at 78 ppm, one per entry
Test system: Mexican bean beetle (Epilachna varivestis Muls.)
experiment_summary: Initial contact activity against Mexican bean beetle (percent kill)
Type: in vivo
assay_context: 78 ppm, 72 hours exposure, read-out: Percent Kill MBB, initial activity
# output: number + unit

For reference, reported mortality at 78 ppm for CC1(C)C(C=CSc2ccccc2)C1C(=O)OCc1cccc(Oc2ccccc2)c1 (mixture of isomers) [Example 1] stands at 62%

The compound listed as CC1(C)C(C=C(Cl)Sc2ccc(Cl)cc2)C1C(=O)OCc1cccc(Oc2ccccc2)c1 (mixture of isomers) [Example 9] has a reported mortality at 78 ppm of 100%

Further cases:
// sample CC1(C)C(C=C(Cl)Sc2ccccc2)C1C(=O)OCc1cccc(Oc2ccccc2)c1 (mixture of isomers) [Example 4] , its mortality at 78 ppm was 100%

CC1(C)C(C=C(Br)Sc2ccccc2)C1C(=O)OCc1cccc(Oc2ccccc2)c1 (mixture of isomers) [Example 10] has a reported mortality at 78 ppm of 95%

According to the records, this compound CC1(C)C(C=CSc2ccccc2)C1C(=O)OC(C#N)c1cccc(Oc2ccccc2)c1 (mixture of isomers) [Example 2] displays mortality at 78 ppm of 80%

Briefly, mortality at 78 ppm measured for CC1(C)C(C=CSc2ccc(F)cc2)C1C(=O)OC(C#N)c1cccc(Oc2ccccc2)c1 (mixture of isomers) [Example 6] : 94%

mortality at 78 ppm reported for this compound CC1(C)C(C=C(Cl)Sc2ccccc2)C1C(=O)OC(C#N)c1cccc(Oc2ccccc2)c1 (mixture of isomers) [Example 3] : 92%

According to the records, this compound CC1(C)C(C=C(Cl)Sc2ccc(F)cc2)C1C(=O)OC(C#N)c1cccc(Oc2ccccc2)c1 (mixture of isomers) [Example 8] displays mortality at 78 ppm of 100%

Lab book: mortality at 78 ppm of CC1(C)C(C=CSc2ccc(F)cc2)C1C(=O)OCc1cccc(Oc2ccccc2)c1 (mixture of isomers) [Example 5] noted as 35%

Recorded mortality at 78 ppm (compound CC1(C)C(C=C(Cl)Sc2ccccc2)C1C(=O)OC(c1cccc(Oc2ccccc2)c1)C(F)(F)F (mixture of isomers) [Example 7] ): 100%
